# tested.system: human DGKα (Homo sapiens, UniProt P23743)
# Construct: TVMV protease cleavage site (C); Hexa-His (C); made in house; host or cells: Sf9 insect cells (baculovirus, Bac-to-Bac)
# Sequence (P23743 with tags, fused parts or gaps): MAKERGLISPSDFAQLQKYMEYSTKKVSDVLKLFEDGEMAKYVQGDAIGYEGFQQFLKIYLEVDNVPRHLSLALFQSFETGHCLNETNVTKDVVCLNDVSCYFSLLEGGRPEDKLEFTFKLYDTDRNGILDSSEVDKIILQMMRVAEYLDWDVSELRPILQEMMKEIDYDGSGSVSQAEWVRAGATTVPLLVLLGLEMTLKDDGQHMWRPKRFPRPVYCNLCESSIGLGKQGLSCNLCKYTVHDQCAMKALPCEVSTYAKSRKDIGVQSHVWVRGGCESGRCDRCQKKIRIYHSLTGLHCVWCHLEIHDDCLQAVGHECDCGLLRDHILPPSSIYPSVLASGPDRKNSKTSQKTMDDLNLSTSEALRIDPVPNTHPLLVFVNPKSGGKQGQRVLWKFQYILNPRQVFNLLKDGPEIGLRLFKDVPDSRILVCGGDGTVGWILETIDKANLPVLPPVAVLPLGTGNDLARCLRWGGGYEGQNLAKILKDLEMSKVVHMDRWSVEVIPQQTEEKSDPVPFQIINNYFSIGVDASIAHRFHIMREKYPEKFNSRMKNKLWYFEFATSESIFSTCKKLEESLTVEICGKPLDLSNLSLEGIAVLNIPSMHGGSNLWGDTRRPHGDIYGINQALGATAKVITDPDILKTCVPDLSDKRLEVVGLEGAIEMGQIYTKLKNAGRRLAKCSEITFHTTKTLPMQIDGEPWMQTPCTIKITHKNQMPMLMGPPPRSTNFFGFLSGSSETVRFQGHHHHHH
# method.notes: DGKα LIPGLO assay (extruded liposome substrate), in vitro DGK inhibition
# Format: biochemical
# measurement.setup: liposome (LIPGLO) assay; read-out: DGKa LIPGLO IC50
parameter: IC50 (nM)

{"molecule": "CC[C@H]1CN(C(C)c2ccc(OC(F)F)cc2)[C@H](CC)CN1c1cc(=O)n(C)c2ccc(C#N)nc12 (single isomer, unassigned) [Example 1373]", "tested.system": "human DGKα (Homo sapiens, UniProt P23743)", "parameter": "IC50", "reported.measurement": 9.5}
{"molecule": "CC[C@@H]1CN(c2cc(=O)n(C)c3ccc(C#N)nc23)[C@@H](C)CN1C(C)c1ccc(OC)cc1 (single isomer, unassigned) [Example 483]", "tested.system": "human DGKα (Homo sapiens, UniProt P23743)", "parameter": "IC50", "reported.measurement": 3300}
{"molecule": "COC[C@@H]1CN(c2cc(=O)n(C)c3ccc(C#N)nc23)[C@@H](C)CN1C(c1ccc(F)cc1)c1ccc(C(F)(F)F)cn1 (stereo partly drawn) [Example 1401]", "tested.system": "human DGKα (Homo sapiens, UniProt P23743)", "parameter": "IC50", "reported.measurement": 300}

----------
# tested.system: human DGKζ (Homo sapiens, UniProt Q13574)
# Construct: TVMV protease cleavage site (C); Hexa-His (C); made in house; host or cells: Sf9 insect cells (baculovirus, Bac-to-Bac)
# Sequence (Q13574 with tags, fused parts or gaps isoform Q13574-4): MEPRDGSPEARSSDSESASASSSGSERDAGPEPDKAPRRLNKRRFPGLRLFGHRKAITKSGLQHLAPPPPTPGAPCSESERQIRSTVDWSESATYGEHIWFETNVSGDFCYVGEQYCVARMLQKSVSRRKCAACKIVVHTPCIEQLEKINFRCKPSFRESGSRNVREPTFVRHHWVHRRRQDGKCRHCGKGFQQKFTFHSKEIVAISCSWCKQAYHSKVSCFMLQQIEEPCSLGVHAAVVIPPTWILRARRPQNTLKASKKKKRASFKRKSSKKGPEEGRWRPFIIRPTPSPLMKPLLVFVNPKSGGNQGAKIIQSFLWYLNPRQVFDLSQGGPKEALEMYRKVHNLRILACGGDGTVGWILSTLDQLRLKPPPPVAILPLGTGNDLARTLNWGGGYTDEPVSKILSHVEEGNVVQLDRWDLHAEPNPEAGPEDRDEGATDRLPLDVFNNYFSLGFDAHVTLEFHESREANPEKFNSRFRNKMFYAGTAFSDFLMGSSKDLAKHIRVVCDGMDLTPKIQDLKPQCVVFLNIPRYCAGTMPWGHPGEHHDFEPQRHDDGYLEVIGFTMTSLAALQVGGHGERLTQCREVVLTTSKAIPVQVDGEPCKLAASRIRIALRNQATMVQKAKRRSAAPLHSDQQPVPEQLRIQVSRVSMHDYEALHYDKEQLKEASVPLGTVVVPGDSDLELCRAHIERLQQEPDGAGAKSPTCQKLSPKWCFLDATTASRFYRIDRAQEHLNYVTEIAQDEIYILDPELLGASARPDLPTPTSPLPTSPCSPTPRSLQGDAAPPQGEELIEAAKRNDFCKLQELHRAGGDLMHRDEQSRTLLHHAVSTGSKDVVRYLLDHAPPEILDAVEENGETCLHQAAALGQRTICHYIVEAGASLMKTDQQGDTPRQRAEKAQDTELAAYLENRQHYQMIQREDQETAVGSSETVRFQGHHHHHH
# method.notes: DGKζ LIPGLO assay (extruded liposome substrate), in vitro DGK inhibition
# Assay type: biochemical
# measurement.setup: liposome (LIPGLO) assay; read-out: DGKz LIPGLO IC50

{"molecule": "C[C@@H]1CN(c2cc(=O)n(C)c3ccc(C#N)nc23)[C@@H](C)CN1C(c1ccc(F)cc1)c1cncc(F)c1 (single isomer, unassigned) [Example 386]", "tested.system": "human DGKζ (Homo sapiens, UniProt Q13574)", "IC50 (µM)": 4.6}
{"molecule": "C[C@@H]1CN(c2c(C#N)c(=O)n(C)c3ccc(C#N)nc23)CCN1C(c1ccc(F)cc1)c1ccncn1 (single isomer, unassigned) [Example 312]", "tested.system": "human DGKζ (Homo sapiens, UniProt Q13574)", "IC50 (µM)": 3.4}
{"molecule": "C[C@@H]1CN(c2cc(=O)n(C)c3ccc(C#N)nc23)[C@@H](C)CN1C(c1c(F)cc(O)cc1F)C(F)(F)F (single isomer, unassigned) [Example 628]", "tested.system": "human DGKζ (Homo sapiens, UniProt Q13574)", "IC50 (µM)": 7.4}
{"molecule": "CC[C@@H]1CN(c2cc(=O)n(C)c3ccc(C#N)nc23)[C@@H](C)CN1C(C)c1ccc(F)cc1 (single isomer, unassigned) [Example 1084]", "tested.system": "human DGKζ (Homo sapiens, UniProt Q13574)", "IC50 (µM)": 5}
{"molecule": "CC(C)[C@@H]1CN(c2cc(=O)n(C)c3ccc(C#N)nc23)CCN1C(c1ccc(Cl)cc1)c1ccc(Cl)cc1", "tested.system": "human DGKζ (Homo sapiens, UniProt Q13574)", "IC50 (µM)": 58}
{"molecule": "Cn1c(=O)cc(N2CCN(Cc3ccc(F)cc3Cl)C(COC(F)F)C2)c2nc(C#N)ccc21 (single isomer, unassigned) [Example 1184]", "tested.system": "human DGKζ (Homo sapiens, UniProt Q13574)", "IC50 (µM)": 11}
{"molecule": "C[C@@H]1CN(c2cc(=O)n(C)c3ccc(C#N)nc23)[C@@H](C)CN1Cc1ccc(OC(F)F)cc1", "tested.system": "human DGKζ (Homo sapiens, UniProt Q13574)", "IC50 (µM)": 7.4}
{"molecule": "COc1cc(F)ccc1C(c1ccc(F)cc1)N1C[C@@H](C)N(c2c([N+](=O)[O-])c(=O)n(C)c3ccc(C#N)nc23)C[C@@H]1C (stereo in doubt)", "tested.system": "human DGKζ (Homo sapiens, UniProt Q13574)", "IC50 (µM)": 240}
{"molecule": "COC(=O)C1CN(c2c([N+](=O)[O-])c(=O)n(C)c3ccc(C#N)nc23)CCN1C(c1ccc(F)cc1)c1ccc(F)cc1 (single isomer, unassigned)", "tested.system": "human DGKζ (Homo sapiens, UniProt Q13574)", "IC50 (µM)": 0.31}
{"molecule": "CC[C@H]1CN(C(C)c2ccc(OC(F)F)cc2)[C@H](CC)CN1c1cc(=O)n(C)c2ccc(C#N)nc12 (single isomer, unassigned) [Example 1373]", "tested.system": "human DGKζ (Homo sapiens, UniProt Q13574)", "IC50 (µM)": 0.032}
{"molecule": "CC(c1cccc2c1OC(F)(F)O2)N1C[C@H](C)N(c2cc(=O)n(C)c3ccc(C#N)nc23)C[C@H]1C (single isomer, unassigned) [Example 1216]", "tested.system": "human DGKζ (Homo sapiens, UniProt Q13574)", "IC50 (µM)": 0.15}
{"molecule": "Cn1c(=O)cc(N2CCN(C(c3ccc(F)cc3)c3ccc(F)cc3)CC2CO)c2nc(C#N)ccc21 (single isomer, unassigned) [Example 147]", "tested.system": "human DGKζ (Homo sapiens, UniProt Q13574)", "IC50 (µM)": 15}
{"molecule": "C[C@@H]1CN(c2cc(=O)n(C)c3ccc(C#N)nc23)[C@@H](C)CN1Cc1c(F)ccc(F)c1Cl", "tested.system": "human DGKζ (Homo sapiens, UniProt Q13574)", "IC50 (µM)": 2.1}
{"molecule": "C[C@@H]1CN(c2cc(=O)[nH]c3ccc(C#N)nc23)[C@@H](C)CN1C(c1ccc(F)cc1)c1ccc(C#N)cc1 (some centres unmarked) [Example 1336]", "tested.system": "human DGKζ (Homo sapiens, UniProt Q13574)", "IC50 (µM)": 14}
{"molecule": "Cc1c(F)ccc(C(C)N2C[C@H](C)N(c3cc(=O)n(C)c4ccc(C#N)nc34)C[C@H]2C)c1Cl (single isomer, unassigned) [Example 487]", "tested.system": "human DGKζ (Homo sapiens, UniProt Q13574)", "IC50 (µM)": 11}
{"molecule": "COc1cc(C(C)N2C[C@H](C)N(c3cc(=O)n(C)c4ccc(C#N)nc34)C[C@H]2C)ccc1F (single isomer, unassigned) [Example 1232]", "tested.system": "human DGKζ (Homo sapiens, UniProt Q13574)", "IC50 (µM)": 1.4}
{"molecule": "C[C@H]1CN(C(c2ccc(F)cc2)c2ccc(C(F)(F)F)cn2)[C@H](CO)CN1c1cc(=O)n(C)c2ccc(C#N)nc12 (single isomer, unassigned) [Example 1388]", "tested.system": "human DGKζ (Homo sapiens, UniProt Q13574)", "IC50 (µM)": 2.8}
{"molecule": "CC[C@@H]1CN(c2cc(=O)n(C)c3ccc(C#N)nc23)[C@@H](C)CN1C(C)c1ccc(OC)cc1 (single isomer, unassigned) [Example 483]", "tested.system": "human DGKζ (Homo sapiens, UniProt Q13574)", "IC50 (µM)": 3.9}
{"molecule": "C[C@@H]1CN(c2cc(=O)n(C)c3ccc(C#N)nc23)[C@@H](C)CN1C(c1ccc(F)cc1)c1ncco1 (some centres unmarked) [Example 718]", "tested.system": "human DGKζ (Homo sapiens, UniProt Q13574)", "IC50 (µM)": 4.6}
{"molecule": "COc1cc(F)ccc1C(c1ccc(F)cc1)N1C[C@H](C)N(c2c(C#N)c(=O)n(C)c3ccc(C#N)nc23)C[C@H]1C (single isomer, unassigned) [Example 111]", "tested.system": "human DGKζ (Homo sapiens, UniProt Q13574)", "IC50 (µM)": 1.6}
{"molecule": "Cc1ccc(C(c2cccc(F)c2)N2C[C@H](C)N(c3cc(=O)n(C)c4ccc(C#N)nc34)C[C@H]2C)cn1 (some centres unmarked) [Example 417]", "tested.system": "human DGKζ (Homo sapiens, UniProt Q13574)", "IC50 (µM)": 11}
{"molecule": "CC[C@H]1CN(C(C)c2ccc(OC(F)(F)F)cc2)[C@H](CC)CN1c1cc(=O)n(C)c2ccc(C#N)nc12 (single isomer, unassigned) [Example 1053]", "tested.system": "human DGKζ (Homo sapiens, UniProt Q13574)", "IC50 (µM)": 0.14}
{"molecule": "CC[C@H]1CN(C(C)c2ccc(OC(F)(F)F)cc2F)[C@H](CC)CN1c1cc(=O)n(C)c2ccc(C#N)nc12 (single isomer, unassigned) [Example 1371]", "tested.system": "human DGKζ (Homo sapiens, UniProt Q13574)", "IC50 (µM)": 0.058}

Reference for the values: patent US10669272B2
